We begin with a simple list: items and their reported %Inh.
- Tested on: CAMKK1;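 further: KINOMEscan kinase panel screen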
- MEASUREMENT_CONTEXT: concentration: 1 μM, replicates: in singlicate; n = 1
TEST_READOUT: %Inh (%)

In [3]: df
Out[3]:
                                    compound  system_name  scale_unit  assay_value
 0  Cc1ccc(Oc2ccc(Nc3ncnc4cc[nH]c34)cc2C)cn1       CAMKK1           %            9
 1  COc1cc2ncn(-c3cc(OCc4ccc(S(C)(=O)=O)cc4)c(C(N)=O)s3)c2cc1OC       CAMKK1           %            0
 2  CCS(=O)(=O)c1ccc(OC)c(Nc2ncc(-c3ccc(F)cc3)o2)c1.Cl       CAMKK1           %            1
 3  CCS(=O)c1ccc(-c2coc3ccc(-c4nnc(C)o4)cc23)cc1 (stereo not drawn)       CAMKK1           %            0
 4  CCC(=O)c1c(-c2ccccc2)c2cc(Cl)ccc2c(=O)n1Cc1cc(S(C)(=O)=O)n(CC(N)=O)n1       CAMKK1           %            0
 5  COc1ccc(-c2cc3c(C)nc(N)nc3n([C@H]3CC[C@H](O)CC3)c2=O)cn1       CAMKK1           %            0
 6  COc1ccc(-c2coc3ccc(-c4nnc(SCc5cccc(C#N)c5)o4)cc23)cc1       CAMKK1           %            0
 7  COC(=O)c1c(-c2ccccc2)c2cc(Br)ccc2c(=O)n1Cc1ccc(S(C)(=O)=O)cc1       CAMKK1           %           10
 8  COc1cc(Nc2nccc(N3CCC(NC(=O)C(C)c4ccc(Cl)cc4)C3)n2)cc(OC)c1OC (stereo not drawn)       CAMKK1           %            0
 9  CCc1ccc(-c2ccc3c(c2)-c2nn(C)cc2S(=O)(=O)N3C)cc1       CAMKK1           %           22
10  CCCC(=O)Nc1n[nH]c2ncc(-c3cccc4ccccc34)cc12       CAMKK1           %           20
11           Nc1nc(N)c2nc(-c3ccccc3)[nH]c2n1       CAMKK1           %            6
12                Nc1ncnc2c1ncn2-c1cccc(F)c1       CAMKK1           %            0
13  COc1cc(OC)cc(-c2cc3cnc(N)nc3nc2NC(=O)NC(C)(C)C)c1       CAMKK1           %           16
14  COc1cc2ncn(-c3cc(OCc4ccncc4Br)c(C(N)=O)s3)c2cc1OC       CAMKK1           %           15
15  COc1ccc(Nc2nccc(N3CCC(NS(=O)(=O)c4ccc(NC(C)=O)cc4)C3)n2)cc1 (stereo not drawn)       CAMKK1           %           12
16     CCCNC(=O)Nc1ccc(Oc2ncnc3ccn(C)c23)cc1       CAMKK1           %            5
17  CC(C)(C)c1ccc(C(=O)Nc2cn3cc(-c4ccccc4)ccc3n2)cc1       CAMKK1           %            0

Data provenance: paper PMC5540273
